Field: enrichment ratio. Provide a value for each of the variants that follow.
B1: PhoQ; a variant is named by its letters at X, in order, P23837 (parent)
chain: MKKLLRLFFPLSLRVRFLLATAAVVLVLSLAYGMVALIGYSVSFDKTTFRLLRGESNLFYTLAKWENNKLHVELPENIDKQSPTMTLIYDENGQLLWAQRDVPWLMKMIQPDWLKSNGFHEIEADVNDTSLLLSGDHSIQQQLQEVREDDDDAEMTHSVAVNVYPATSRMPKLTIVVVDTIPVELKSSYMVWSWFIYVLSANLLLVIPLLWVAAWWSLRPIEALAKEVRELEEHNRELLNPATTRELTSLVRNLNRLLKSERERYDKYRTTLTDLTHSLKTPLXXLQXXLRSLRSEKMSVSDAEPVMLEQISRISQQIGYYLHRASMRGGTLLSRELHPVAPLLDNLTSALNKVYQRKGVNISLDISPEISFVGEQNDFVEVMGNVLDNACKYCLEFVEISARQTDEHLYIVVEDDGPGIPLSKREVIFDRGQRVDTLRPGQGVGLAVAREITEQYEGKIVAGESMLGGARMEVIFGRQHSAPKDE

Variants of: B1
Test: enrichment ratio after two sorts for PhoP signalling (ratio (wild type AVST 3.29)); higher = more functional
Settings: with PhoP (E. coli)
Whole data set: some 140,000 sequences, median “enrichment ratio after two sorts for PhoP signalling” near 0, cut for the highest 2% near 11. The sample holds the highest values, similar sequences and a random draw of the others, so the mix is not that of the screen.
# output: bare number, no unit

INPUT: For the variant "TGVQ" , what enrichment ratio is on record?
OUTPUT: 7.73

INPUT: Continue with "SGVQ"
OUTPUT: 20.5

INPUT: Continue with "SMGQ"
OUTPUT: 11.7

INPUT: Continue with "SGGM"
OUTPUT: 8.79

INPUT: Continue with "SMGG"
OUTPUT: 1.44

INPUT: Continue with "SMCI"
OUTPUT: 14.3

INPUT: Continue with "SLCY"
OUTPUT: 2.99

INPUT: Continue with "SMCS"
OUTPUT: 10.4
